Where these numbers come from: patent US5149719A

# measurementDescription: in vitro
# reportedConditions: guinea pig, Permeability Coefficient (cm/hr) ± SEM, 20% v/v ethanol, saturated dodecanol, Example 13
Counter-ions that a name gives are not always drawn.
reportedMetric: Papp at 8 h (×10⁻⁶ cm/s)
Record the value in ×10⁻⁶ cm/s, omitting the unit from your answer.

The compound listed as COc1ccc([C@@H]2Sc3ccccc3N(CCN(C)C)C(=O)[C@@H]2OC(C)=O)cc1 [Diltiazem Hydrochloride] shows Papp at 8 h equal to 0.0336

====

# reportedConditions: H^3-mannitol in 30% v/v aqueous ethanol
reportedMetric: amount of higher alcohol necessary to reach a small permanent visible excess

Examples with their reported amount of higher alcohol necessary to reach a small permanent visible excess follow.
smilesCode | value
CCCCCCCCCCCCCCCCCCO | ~0.1 mg/mL
CCCCCO | 100 μl/ml
CCCCCCCCCCCCO | ~10 μl/ml
CCCCCCCCCCO | ~10 μl/ml
CCCCCCCCCCCCCCO | ~4 mg/mL

The compound listed as CCCCCCCCCCCCCCCCO shows amount of higher alcohol necessary to reach a small permanent visible excess equal to ~0.1 mg/mL

The compound listed as CCCCCCCCCCCCCO shows amount of higher alcohol necessary to reach a small permanent visible excess equal to ~4 mg/mL

The compound listed as CCCCCCCCO shows amount of higher alcohol necessary to reach a small permanent visible excess equal to ~20 μl/ml

====

# measurementDescription: in vitro
# reportedConditions: guinea pig, Permeability Coefficient (cm/hr) ± SEM, no ethanol, saturated dodecanol, Example 13
Structures can show the parent of a compound that is named as a salt.
reportedMetric: Papp at 8 h (×10⁻⁶ cm/s)
Record the value in ×10⁻⁶ cm/s, omitting the unit from your answer.

The molecule listed as COc1ccc([C@@H]2Sc3ccccc3N(CCN(C)C)C(=O)[C@@H]2OC(C)=O)cc1 [Diltiazem Hydrochloride] shows Papp at 8 h equal to 0.00764

====

# measurementDescription: in vitro
# reportedConditions: guinea pig, Permeability Coefficient (cm/hr) ± SEM, 50% v/v ethanol, saturated dodecanol, Example 13
Structures can show the parent of a compound that is named as a salt.
reportedMetric: Papp at 8 h (×10⁻⁶ cm/s)
Record the value in ×10⁻⁶ cm/s, omitting the unit from your answer.

The molecule listed as COc1ccc([C@@H]2Sc3ccccc3N(CCN(C)C)C(=O)[C@@H]2OC(C)=O)cc1 [Diltiazem Hydrochloride] shows Papp at 8 h equal to 0.294
